The entries that follow carry IC50 values tested on UniProtKB O60341, drawn from several published reports.

Guide cases for IC50, answers given:
>  <compound>
Cc1c(C(=O)N2CC[C@H](N)C2)nc(-c2ccc(C#N)c(F)c2)n1-c1ccc(C2CC2)nc1

>  <IC50>
< 100 nM

$$$$
>  <compound>
O=C(O)c1ccc(CN2CCC(c3nc(C4(CN[C@H]5C[C@@H]5c5ccccc5)CC4)no3)CC2)cc1

>  <IC50>
100 to 500 nM

$$$$
>  <compound>
c1ccc([C@H]2C[C@@H]2NCC2(CN3CCC3)CC2)cc1

>  <IC50>
50 to 100 nM

$$$$
>  <compound>
COc1ccc(-n2c(-c3ccc(C#N)c(F)c3)nc(C(=O)N3CC[C@H](N)C3)c2F)cc1F

>  <IC50>
< 100 nM

$$$$
>  <compound>
Cc1ccc(-c2cnc(N[C@@H]3C[C@H]4CNC[C@H]4C3)nc2-c2ccc(C#N)cc2)cc1

>  <IC50>
100 to 1000 nM

$$$$

Form field - read-out: IC50; system: UniProtKB O60341; submitted item: N#Cc1ccc(-c2nc(NC[C@H]3CCNC3)ncc2-c2ccc(C(F)(F)F)cc2)cc1
< 100 nM

Form field - read-out: IC50; system: UniProtKB O60341; submitted item: N#Cc1ccc(-c2cc3c(ccn3C[C@@H]3CCNC3)nc2Cl)cc1
100 to 1000 nM

Form field - read-out: IC50; system: UniProtKB O60341; submitted item: N[C@H]1CCN(CCN[C@H]2C[C@@H]2c2ccc(-c3cccc(C(F)(F)F)c3)cc2)C1
< 200 nM

Form field - read-out: IC50; system: UniProtKB O60341; submitted item: CN(C)c1ncc(-c2c(-c3ccc(C#N)c(F)c3)nc(N3CCC(N(C)C)CC3)n(C)c2=O)cn1
< 100 nM

Form field - read-out: IC50; system: UniProtKB O60341; submitted item: Clc1ccc2nc(C3(CN[C@H]4CC4c4ccccc4)CC3)oc2c1 (stereo partly shown)
≤ 50 nM
